molecular target: UniProt:P28223; test: Binding to human 5-HT2A receptors expressed in mammalian cells; design: expressed in transfected cells; host or cells: CHO cells; settings: mammalian cells expressing human 5-HT2A receptors
Property Measured: Ki

Request: Quick one: Ki for Cc1ccc(Sc2ccccc2C2CCNCC2)cc1 [compound I] ?
Result: < 100 nM

----------
target: 5-HT2A receptors (Homo sapiens, UniProt P28223); assay: 5-HT2A receptor affinity (MDL Pharmaservices catalogue number 271650); assay type: binding; parameters: purchased MDL Pharmaservices 271650
Sequence (P28223 whole entry): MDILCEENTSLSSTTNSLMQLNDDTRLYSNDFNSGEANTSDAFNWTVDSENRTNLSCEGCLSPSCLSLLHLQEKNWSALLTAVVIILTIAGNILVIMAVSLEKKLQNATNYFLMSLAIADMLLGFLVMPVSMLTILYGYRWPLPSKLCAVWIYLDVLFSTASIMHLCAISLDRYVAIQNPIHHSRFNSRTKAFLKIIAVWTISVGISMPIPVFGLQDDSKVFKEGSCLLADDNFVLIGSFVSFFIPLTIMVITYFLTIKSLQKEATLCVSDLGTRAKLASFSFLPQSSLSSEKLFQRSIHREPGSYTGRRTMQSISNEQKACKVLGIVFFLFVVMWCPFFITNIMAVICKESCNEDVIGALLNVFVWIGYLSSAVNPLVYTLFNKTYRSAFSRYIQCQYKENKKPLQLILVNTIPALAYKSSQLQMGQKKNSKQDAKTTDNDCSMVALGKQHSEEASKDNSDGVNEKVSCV
Property Measured: Ki (nM)
A number alone suffices; assume nM.

Request: # Ki lookup, item `Cc1ccc(Sc2ccccc2C2CCNCC2)cc1`
Result: 54

----------
target: SERT (Rattus norvegicus, UniProt P31652); construct: rat cortical synaptosome preparation; assay: Serotonin (5-HT) reuptake inhibition, rat cortical synaptosomes; conditions: rat cortical synaptosome preparation
Sequence (P31652 whole entry): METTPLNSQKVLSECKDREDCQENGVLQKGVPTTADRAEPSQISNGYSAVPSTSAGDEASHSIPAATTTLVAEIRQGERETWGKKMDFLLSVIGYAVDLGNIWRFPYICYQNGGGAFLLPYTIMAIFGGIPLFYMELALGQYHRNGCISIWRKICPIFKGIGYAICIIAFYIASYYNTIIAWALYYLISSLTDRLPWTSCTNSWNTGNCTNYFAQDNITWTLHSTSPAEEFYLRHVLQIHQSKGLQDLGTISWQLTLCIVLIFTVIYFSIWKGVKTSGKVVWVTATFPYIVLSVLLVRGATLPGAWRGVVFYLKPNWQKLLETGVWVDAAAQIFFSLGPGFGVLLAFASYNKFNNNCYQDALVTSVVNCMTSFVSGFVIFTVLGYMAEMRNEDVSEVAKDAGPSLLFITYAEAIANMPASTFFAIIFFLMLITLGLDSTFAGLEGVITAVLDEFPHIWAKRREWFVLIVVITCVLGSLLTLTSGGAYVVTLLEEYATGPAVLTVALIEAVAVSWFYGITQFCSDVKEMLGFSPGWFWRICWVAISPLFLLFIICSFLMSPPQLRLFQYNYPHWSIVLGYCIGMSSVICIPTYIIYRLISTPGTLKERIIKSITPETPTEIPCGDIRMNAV
Property Measured: pIC50
Reminder that pIC50 is minus the log10 of a molar concentration.

Request: I have this molecule here, `Cc1ccc(Sc2ccccc2C2CCNCC2)cc1` , and I need its recorded pIC50.
Result: 8.10

----------
Target: UniProt P46098
Sequence (P46098 24-478): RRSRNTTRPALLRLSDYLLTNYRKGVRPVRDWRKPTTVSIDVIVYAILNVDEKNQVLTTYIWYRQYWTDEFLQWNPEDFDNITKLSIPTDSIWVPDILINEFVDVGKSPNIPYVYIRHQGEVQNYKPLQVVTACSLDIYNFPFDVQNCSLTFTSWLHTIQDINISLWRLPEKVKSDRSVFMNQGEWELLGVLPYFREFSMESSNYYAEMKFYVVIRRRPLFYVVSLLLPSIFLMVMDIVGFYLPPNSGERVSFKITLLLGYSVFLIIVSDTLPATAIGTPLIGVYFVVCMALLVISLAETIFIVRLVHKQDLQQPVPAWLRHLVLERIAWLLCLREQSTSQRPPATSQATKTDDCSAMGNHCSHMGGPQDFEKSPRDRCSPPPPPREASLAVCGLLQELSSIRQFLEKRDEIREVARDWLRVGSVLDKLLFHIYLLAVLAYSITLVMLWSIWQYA
Test: Electrophysiology in oocytes expressing human-homomeric 5-HT3A receptors
Conditions: 100-100000 nM; read-out: EC50, agonistic properties in higher concentrations
Method: The experiments were carried out as follows. […] Oocytes avoid of the follicle layer were selected and incubated for 24 hours in Modified Barth's Saline buffer [88 mM NaCl, 1 mM KCl, 15 mM HEPES, 2.4 mM NaHCO3, 0.41 mM CaCl2, 0.82 mM MgSO4, 0.3 mM Ca(NO3)2] supplemented with 2 mM sodium pyruvate, 0.1 U/l penicillin and 0.1 μg/l streptomycin. […]
Property Measured: EC50

Request: Entry Cc1ccc(Sc2ccccc2C2CCNCC2)cc1 [compound I] has what EC50?
Result: ~2.6 µM

----------
Molecular target: human-homomeric 5-HT3A receptors (Homo sapiens, UniProt P46098)
Sequence (P46098 24-478): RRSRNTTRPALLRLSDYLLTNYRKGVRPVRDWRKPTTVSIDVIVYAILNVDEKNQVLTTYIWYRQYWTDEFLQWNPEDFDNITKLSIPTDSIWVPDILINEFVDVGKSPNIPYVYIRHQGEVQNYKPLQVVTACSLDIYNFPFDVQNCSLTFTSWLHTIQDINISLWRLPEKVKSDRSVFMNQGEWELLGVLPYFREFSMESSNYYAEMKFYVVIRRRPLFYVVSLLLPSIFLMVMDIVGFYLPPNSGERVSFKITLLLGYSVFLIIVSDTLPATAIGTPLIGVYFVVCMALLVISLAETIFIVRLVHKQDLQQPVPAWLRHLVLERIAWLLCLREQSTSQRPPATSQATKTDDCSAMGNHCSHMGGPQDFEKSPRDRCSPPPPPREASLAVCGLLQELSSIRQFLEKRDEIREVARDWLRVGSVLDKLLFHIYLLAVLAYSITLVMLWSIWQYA
Assay: Electrophysiology in oocytes expressing human-homomeric 5-HT3A receptors
Details: read-out: IC50, antagonism in low concentrations
Property Measured: IC50

Request: What does the record list as IC50 for `Cc1ccc(Sc2ccccc2C2CCNCC2)cc1` ?
Result: ~10 nM

----------
molecular target: NET (Rattus norvegicus, UniProt Q63380); construct: rat cortical synaptosome preparation; assay: Norepinephrine (NE) reuptake inhibition, rat cortical synaptosomes; conditions: rat cortical synaptosome preparation; read-out: IC50 at NET ([3H]NE uptake)
Sequence (Q63380 1-617): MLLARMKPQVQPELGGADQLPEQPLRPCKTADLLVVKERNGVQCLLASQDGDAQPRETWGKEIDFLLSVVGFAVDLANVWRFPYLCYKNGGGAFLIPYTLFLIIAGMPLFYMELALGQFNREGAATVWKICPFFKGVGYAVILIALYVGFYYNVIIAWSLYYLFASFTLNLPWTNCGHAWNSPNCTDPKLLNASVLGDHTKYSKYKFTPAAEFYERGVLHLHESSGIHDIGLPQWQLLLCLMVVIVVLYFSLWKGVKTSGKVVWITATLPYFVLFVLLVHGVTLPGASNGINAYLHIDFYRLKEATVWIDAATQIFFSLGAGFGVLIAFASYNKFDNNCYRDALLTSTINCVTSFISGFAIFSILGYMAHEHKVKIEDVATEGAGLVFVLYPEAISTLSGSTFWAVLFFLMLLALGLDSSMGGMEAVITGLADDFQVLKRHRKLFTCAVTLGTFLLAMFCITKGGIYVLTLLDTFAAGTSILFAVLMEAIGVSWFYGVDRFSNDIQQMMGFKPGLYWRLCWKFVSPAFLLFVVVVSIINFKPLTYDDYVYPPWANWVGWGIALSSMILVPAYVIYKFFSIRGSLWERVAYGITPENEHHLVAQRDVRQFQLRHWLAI
Property Measured: IC50 (nM)
Give the value in nM but do not write nM after it.

Request: Query for NET (Rattus norvegicus, UniProt Q63380): what IC50 does the record show for `Cc1ccc(Sc2ccccc2C2CCNCC2)cc1` ?
Result: 23

----------
Protein target, amino acids: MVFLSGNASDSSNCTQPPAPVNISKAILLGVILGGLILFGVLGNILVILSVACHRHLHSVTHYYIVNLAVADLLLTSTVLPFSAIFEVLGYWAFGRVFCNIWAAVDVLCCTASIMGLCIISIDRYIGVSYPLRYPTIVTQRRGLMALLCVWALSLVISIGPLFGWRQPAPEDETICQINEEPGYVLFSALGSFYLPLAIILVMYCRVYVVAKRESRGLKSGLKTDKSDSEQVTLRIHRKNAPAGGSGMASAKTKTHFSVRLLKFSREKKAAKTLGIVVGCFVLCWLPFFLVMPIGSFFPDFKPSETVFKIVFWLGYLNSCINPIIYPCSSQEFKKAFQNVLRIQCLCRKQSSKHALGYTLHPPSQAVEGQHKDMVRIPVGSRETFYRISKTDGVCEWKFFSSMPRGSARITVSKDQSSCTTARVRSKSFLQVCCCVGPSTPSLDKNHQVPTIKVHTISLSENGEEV
Property Measured: Ki (nM)
Form entry: value (nM) — number only.

Request: Need Ki of `Cc1ccc(Sc2ccccc2C2CCNCC2)cc1` , thanks.
Result: 34
